Origin of the recorded values: BindingDB's records for doi:10.1021/jm960395q

# Study System: Phospholipase A2 (Homo sapiens)
# Sequence (P04054 whole entry): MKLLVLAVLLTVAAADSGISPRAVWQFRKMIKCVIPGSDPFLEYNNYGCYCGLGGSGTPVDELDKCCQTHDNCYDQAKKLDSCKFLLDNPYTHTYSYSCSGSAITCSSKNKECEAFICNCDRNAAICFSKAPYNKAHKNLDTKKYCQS
# Assay Notes: Inhibition of recombinant human secretory Phospholipase A2 (s-PLA2)
Measurement Label: IC50 (nM)

Recorded results for 5 compounds are shown here.
INSERT INTO assay_data (compound, measurement_label, measured_result) VALUES
  ('CC1C(C(N)=O)=C2C(OCC(=O)O)=CC=CN2/C1=C\c1ccccc1 (centres undefined)', 'IC50', 420),
  ('CCC1C(CC(N)=O)=C2C(OCC(=O)O)=CC=CN2/C1=C\c1ccccc1-c1ccccc1 (centres undefined)', 'IC50', 100),
  ('CCC1C(CC(N)=O)=C2C(OCC(=O)O)=CC=CN2/C1=C\c1cccc(Cl)c1 (centres undefined)', 'IC50', 200),
  ('CCc1c(C(=O)C(N)=O)c2c(OCn3ncnn3)cccn2c1Cc1cccc(Cl)c1', 'IC50', 30),
  ('CCC1C(CC(N)=O)=C2C(OCC(=O)O)=CC=CN2/C1=C\c1ccccc1 (centres undefined)', 'IC50', 160);

1: CCC1C(CC(N)=O)=C2C(OCC(=O)O)=CC=CN2/C1=C\c1cccc(C(F)(F)F)c1 (centres undefined)
2: CCC1C(CC(N)=O)=C2C(OCC(=O)O)=CC=CN2/C1=C\c1cccc(Cl)c1Cl (centres undefined)
Among 1 and 2 , whose measured IC50 is the smaller figure? To answer, give the label that identifies your chosen option.
2
(2: 67 nM, 1: 240 nM)

---

# Assay Notes: Inhibitory activity against recombinant human secretory phospholipase A2 (s-PLA2) by phosphatidylcholine/deoxycholate assay (PC/DOC).
Measurement Label: IC50 (nM)

INSERT INTO measurements (smiles, measurement_label, measured_result) VALUES
  ('CCc1c(C(=O)C(N)=O)c2c(OCC(=O)O)cccn2c1CC1CCCCC1', 'IC50', 30);

A: CCc1c(C(=O)C(N)=O)c2c(OCC(=O)O)cccn2c1Cc1ccccc1
B: NC(=O)C(=O)c1c(C2CC2)c(CC2CCCC2)n2cccc(OCC(=O)O)c12
Among A and B , whose measured IC50 is the smaller figure? To answer, give the label that identifies your chosen option.
A
(A: 5 nM, B: 88 nM)

A: Cc1c(C(=O)C(N)=O)c2c(OCC(=O)O)cccn2c1Cc1ccccc1
B: COC(=O)COc1cccn2c(CC3CCCCC3)c(C3CC3)c(C(=O)C(N)=O)c12
Among A and B , whose measured IC50 is the smaller figure? To answer, give the label that identifies your chosen option.
A
(A: 3 nM, B: 160 nM)

A: CCc1c(C(N)=O)c2c(OCC(=O)O)cccn2c1Cc1cccc2ccccc12
B: CCc1c(CC(N)=O)c2c(OCC(=O)O)cccn2c1Cc1cccc(Cl)c1
C: CCc1c(C(=O)C(N)=O)c2c(OCC(=O)O)cccn2c1Cc1cccc2ccccc12
Put the items in sequence by IC50, from largest down. To answer, arrange all of the labels according to the requested order.
A, B, C
(A: 135 nM, B: 52 nM, C: 24 nM)

I: CCc1c(C(=O)C(N)=O)c2c(OCCC(=O)O)cccn2c1Cc1ccccc1-c1ccccc1
II: CCc1c(C(=O)C(N)=O)c2c(OCC(=O)O)cccn2c1Cc1cccc(Cl)c1
Among I and II , whose measured IC50 is the smaller figure? To answer, give the label that identifies your chosen option.
II
(II: 3 nM, I: 130 nM)
